growth reference
Test system: HCT-15 colon
Assay: NCI-60 one-dose screen, 48 h (100 = growth as untreated, 0 = no growth, -100 = all killed)
Conditions: 10 µM unless noted
The panel holds about 83,000 compounds, 20% with a hit somewhere; the sample as a whole holds those more often.
Answer with a number only, understood to be in %.

[
  {
    "molecule": "O=C(Nc1ncc(Cc2ccccc2)s1)c1ccc2c(c1)OCCCO2",
    "growth, %": 21.5
  }
]

Prompt line: growth of Nc1ncnc2c1N=C(c1ccc3c(c1)OCO3)CC(c1cccc(Nc3ccnc4cc(C(F)(F)F)ccc34)c1)N2 (stereo unspecified) on HCT-15 colon?
Response line: 70.8

Prompt line: Query the reported growth for HCT-15 colon; item: Cc1cn(-c2cc(NC(=O)c3cncc(C#Cc4c(N)ncc5ccc(F)cc45)c3)cc(C(F)(F)F)c2)cn1
Response line: 49.9

Prompt line: Item: CCOC(=O)c1c(C)nc2ccccc2c1/C=C/c1cccs1 Test system: HCT-15 colon Read-out: growth Value: ?
Response line: 58.6

Prompt line: Field: growth (HCT-15 colon). Entry: COCCn1cc(-c2csc(-c3c[nH]c4ccc(Br)cc34)n2)c2cccnc21
Response line: 13.1

Prompt line: Kindly state the measured growth obtained for CC(C)(C)c1cc(Cl)c(O)c(CNCCO)c1 with HCT-15 colon.
Response line: 99.7

====

Tested on: SK-MEL-2 melanoma
Assay: NCI-60 one-dose screen, 48 h
Details: 10 µM unless noted
About 83,000 compounds went through this panel and 20% of them were active in at least one assay; those are over-represented in the sample as a whole. Activity calls are given as the source filed them. The calls were made as follows: active = growth percent below 10; inactive = the rest.
Pick from class 1 (active), class 0 (inactive) when you respond.

Solved cases (4 shown):
[
  {
    "compound": "CCO/C=N/C1=C(C#N)C(c2ccc(F)cc2)c2sc3c(F)cccc3c2O1 (stereo not given)",
    "qualitative label": "class 1"
  },
  {
    "compound": "COc1ccc(C(=O)Cn2c(C(=O)c3ccc(OC)cc3)nc3ccccc32)cc1",
    "qualitative label": "class 0"
  },
  {
    "compound": "COc1ccc(N2CCN(C(=O)c3sc4nc(C)c(Br)c(C)c4c3N)CC2)cc1",
    "qualitative label": "class 0"
  },
  {
    "compound": "Cn1cc(-c2csc(-c3cn(CCCN4CCOCC4)c4ccccc34)n2)c2cccnc21",
    "qualitative label": "class 0"
  }
]

Prompt line: Which outcome was entered for the compound Cn1ccc(=O)nc1 in this test?
Response line: class 0

====

System: IGROV1 ovarian
Test: NCI-60 one-dose screen, 48 h (100 = growth as untreated, 0 = no growth, -100 = all killed)
Conditions: 10 µM unless noted
The panel holds about 83,000 compounds, 20% with a hit somewhere; the sample as a whole holds those more often.
reported property: growth (%)
Value expressed in %; do not type the unit.

In the examples that follow, each entry is paired with its recorded growth.
[
  {
    "molecule": "Cc1ccc(C)c(/C=C2\\CN(C(=O)OC(C)(C)C)C/C(=C\\c3cc(C)ccc3C)C2=O)c1",
    "reported property": "growth",
    "reported measurement": 78.1
  },
  {
    "molecule": "C[n+]1ccc(CCc2c[nH]c3ccccc23)cc1",
    "reported property": "growth",
    "reported measurement": 87.7
  },
  {
    "molecule": "O=C1c2ccccc2C(=O)c2c1c(C(=O)NCc1ccccc1)c1ccccn21",
    "reported property": "growth",
    "reported measurement": 97.8
  },
  {
    "molecule": "NC(=O)c1c(NC(=O)c2cccc(C(F)(F)F)c2)sc2c1CCC(=O)C2",
    "reported property": "growth",
    "reported measurement": -6.14
  },
  {
    "molecule": "O=C(Nc1ncccc1OCc1ccccc1)NC1CCCCCC1",
    "reported property": "growth",
    "reported measurement": 89.1
  }
]

Prompt line: Query (molecule): Cc1ccc(CNc2ccc3nc(CCC(C)C)[nH]c3c2)cc1 ; field requested: growth
Response line: 77.4

Prompt line: Look at this molecule and give its reported growth. CN(CCCNC(=O)Cc1ccc2ccc3cccc4ccc1c2c34)CCCNc1cc(-c2ccc3ccccc3c2)nc2ccccc12
Response line: -19.4

Prompt line: Would you kindly share the measured growth for CCCn1cnc2c(c1=N)C(c1ccc(F)cc1)c1sc3c(F)cccc3c1O2 (centres undefined) ?
Response line: 46.2

Prompt line: What does the data say about its growth? Entry: CN(C)c1ccc(-c2nc(-c3ccccc3)c(-c3ccccc3)[nH]2)cc1
Response line: 91.6

Prompt line: Value lookup for growth; key = O=c1nc(-c2ccccc2)c2cc(-c3ccc(C(F)(F)F)nc3)ccc2[nH]1
Response line: 111

Prompt line: growth for COc1cc(/C=C2\CN(S(=O)(=O)c3ccccc3)C/C(=C\c3cc(CN4CCCCC4)c(O)c(OC)c3)C2=O)cc(CN2CCCCC2)c1O ?
Response line: -51.8

Prompt line: Give its growth value. Item: COc1ccc(CCN(CC(=O)N(CC(N)=O)C2CCC[C@@H]2OCc2ccccc2)C(=O)CN(C(=O)CN(CCc2ccc(Cl)cc2)C(=O)CN(C(=O)CN(C)Cc2ccccc2F)[C@H](C)C2CCCCC2)[C@H](C)C2CCCCC2)cc1OC (some centres undefined)
Response line: 43.4

Prompt line: Dear colleague, I am looking for the recorded growth of the following molecule: C=C(c1ccc(OC)c(/C=C/C(=O)c2ccc3c(c2)OCO3)c1)c1cc(OC)c(OC)c(OC)c1
Response line: 35.2

Prompt line: Consider the molecule shown here: CCCCC#Cc1c(I)n(C)c(=O)[nH]c1=O What is its recorded growth?
Response line: -92.5

====

Tested on: SF-268 CNS
Assay: NCI-60 one-dose screen, 48 h
Settings: 10 µM unless noted
About 83,000 compounds went through this panel and 20% of them were active in at least one assay; those are over-represented in the sample as a whole. The source made the active and inactive calls. Rule for the calls: active = growth percent below 10; inactive = the rest.
The reply should name one outcome from YES (active), NO (inactive)

These recorded examples may help you get a feel for the data.
[
  {
    "compound": "CCCC(CC)(C(=O)Nc1ccc2nc(C)cc(N)c2c1)C(=O)Nc1ccc2nc(C)cc(N)c2c1",
    "qualitative label": "NO"
  },
  {
    "compound": "CCOC(=O)C(=CNc1cnc(Nc2ccc(N3CCOCC3)cc2)nc1Oc1ccc(OC)cc1)C(=O)OCC",
    "qualitative label": "NO"
  },
  {
    "compound": "N#Cc1cccc(C2C3=C(COC3=O)N(CCO)c3cc4c(cc32)OCO4)c1 (stereo unspecified)",
    "qualitative label": "NO"
  },
  {
    "compound": "C#CC#CC#CC#CC#CC#CC#CC#CCC1OC[C@H](COC(=O)O[C@@H](C(=O)O[C@H]2C[C@@]3(O)[C@@H](OC(=O)c4ccccc4)[C@@H]4[C@]5(OC(C)=O)CO[C@@H]5C[C@H](O)[C@@]4(C)C(=O)[C@H](OC(C)=O)C(=C2C)C3(C)C)[C@@H](NC(=O)c2ccccc2)c2ccccc2)O1 (stereo partly specified)",
    "qualitative label": "NO"
  },
  {
    "compound": "COC(=O)c1c2c(c(C)[n+]([O-])c1C)C(=O)C(NCc1ccc(OC)cc1)=CC2=O",
    "qualitative label": "NO"
  }
]

Prompt line: # outcome recorded in this test, key = COC(=O)N1CC(Oc2ccccn2)C2CC1c1ccccc1O2 (stereo unspecified)
Response line: NO

Prompt line: Would you mind telling me which call this test gave CCN1C(=O)N(CC)C2Nn3c(s/c(=C\c4ccccc4Br)c3=O)=NC21 (stereo unspecified) ?
Response line: NO

Prompt line: Short answer needed: outcome of this test for Cc1ccc(/C=C(\C#N)n2nnc3cc(F)c(F)cc32)cc1 ?
Response line: NO

====

Test system: MDA-MB-435 melanoma
Experiment: NCI-60 one-dose screen, 48 h (100 = growth as untreated, 0 = no growth, -100 = all killed)
Conditions: 10 µM unless noted
Compounds without any hit were thinned out: in the full panel of roughly 83,000, 20% have a hit. The source made the active and inactive calls. The calls were made as follows: active = growth percent below 10; inactive = the rest.
reported property: growth

Known results for molecules:
[
  {
    "chem smiles": "CCN1C2CCC1/C(=C\\c1ccc(F)cc1)C(=O)/C2=C/c1ccc(F)cc1",
    "reported property": "growth",
    "reported measurement": "25% (inactive)"
  },
  {
    "chem smiles": "CCN(CC)CCCN1C(=O)c2c(c(C)c3c(oc4ccc(O)cc43)c2C)C1=O",
    "reported property": "growth",
    "reported measurement": "93.4% (inactive)"
  }
]

Prompt line: Return growth measured with MDA-MB-435 melanoma given this molecule: CCOC(=O)c1[nH]c2c(c1C)-c1[nH]c(=O)c(S(=O)(=O)c3ccccc3)cc1SC2
Response line: 24.2% [100 µM] (inactive)

Prompt line: Given the entry Cn1c(=O)c2[nH]c(SCC(=O)Nc3ccc(C(=O)/C=C/c4ccccc4Cl)cc3)nc2n(C)c1=O , what growth was observed with MDA-MB-435 melanoma?
Response line: 92% (inactive)

Prompt line: API: value(readout=growth, system=MDA-MB-435 melanoma) for record CCNC(=O)Oc1ccc(/C(=C(/CC)Cc2ccccc2)c2ccc(OCCN3CCCC3)cc2)cc1
Response line: 102% (inactive)
